Test system: THP-1
Assay: Compound (2 uM) was screened for potentiation of IFN-gamma (100 units/mL)-induced expression of HLA-DR in THP-1 cells
Format: functional, Homo sapiens
Measurement kind: Enhancement (%)
Kindly answer with a numeric value in %, unit omitted.

Worked set:
- Compound smiles: "O=C1Cc2c(c3c4ccccc4sc3c3[nH]c4ccccc4c23)N1"
  Measurement kind: "Enhancement"
  Assay result: 153
- Compound smiles: "O=C1Cc2c(c3c(c4[nH]c5ccccc5c24)Cc2ccccc2-3)N1"
  Measurement kind: "Enhancement"
  Assay result: 160
- Compound smiles: "O=C1Cc2c(c3c4ccccc4[nH]c3c3[nH]c4ccccc4c23)N1"
  Measurement kind: "Enhancement"
  Assay result: 130

// moving on: another record for Enhancement
(Q) Item `O=C1Cc2c(c3c4ccccc4oc3c3[nH]c4ccccc4c23)N1` has what recorded Enhancement?
(A) 108
